Exercise: for every item that follows, state its recorded IC50.
# system-under-test: Complex of human HDAC3 and human NCOR2 (Homo sapiens)
# Construct: full length with C-terminal His tag, MW=49.7 kDa; His (C); host or cells: baculovirus expression system (co-expressed)
# Sequence (O15379 whole entry): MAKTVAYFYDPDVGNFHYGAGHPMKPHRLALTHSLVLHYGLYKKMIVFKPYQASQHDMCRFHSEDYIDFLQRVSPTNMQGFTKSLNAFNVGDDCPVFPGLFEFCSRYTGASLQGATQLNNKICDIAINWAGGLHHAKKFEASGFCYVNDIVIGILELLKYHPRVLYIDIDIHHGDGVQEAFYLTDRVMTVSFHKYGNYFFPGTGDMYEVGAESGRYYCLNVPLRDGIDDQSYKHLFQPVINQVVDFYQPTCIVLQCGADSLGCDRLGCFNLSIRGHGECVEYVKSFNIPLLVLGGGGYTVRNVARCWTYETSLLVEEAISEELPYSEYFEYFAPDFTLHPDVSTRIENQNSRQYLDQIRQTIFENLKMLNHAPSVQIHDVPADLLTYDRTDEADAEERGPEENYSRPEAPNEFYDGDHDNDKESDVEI
# Sequence (Q9Y618 395-489 partner limits assumed): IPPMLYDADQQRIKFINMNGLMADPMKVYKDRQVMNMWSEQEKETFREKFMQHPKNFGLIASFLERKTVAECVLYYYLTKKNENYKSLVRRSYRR
# test-summary: HDAC3 biochemical assay, AMC-labeled peptide substrate
# protocol-conditions: read-out: HDAC Isoform IC50 (nM) 3

I looked up `FC(F)(F)c1nc(-c2ccc(CN(c3cnccn3)c3ccc(N4CCCC4)nn3)s2)no1` and its IC50 for Complex of human HDAC3 and human NCOR2 (Homo sapiens) was ≤ 10000 nM

I looked up `CC1(c2cnnc(N(Cc3ccc(-c4noc(C(F)(F)F)n4)s3)c3cnccn3)c2)COC1` and its IC50 for Complex of human HDAC3 and human NCOR2 (Homo sapiens) was > 10000 nM

I looked up `Cc1nccnc1N(Cc1ccc(-c2noc(C(F)(F)F)n2)s1)c1cnccn1` and its IC50 for Complex of human HDAC3 and human NCOR2 (Homo sapiens) was > 10000 nM

I looked up `Nc1cnnc(N(Cc2ccc(-c3noc(C(F)(F)F)n3)s2)c2cnccn2)c1` and its IC50 for Complex of human HDAC3 and human NCOR2 (Homo sapiens) was > 10000 nM

I looked up `CNC(=O)c1ccc(N(Cc2ccc(-c3noc(C(F)(F)F)n3)s2)c2cnccn2)nn1` and its IC50 for Complex of human HDAC3 and human NCOR2 (Homo sapiens) was ≤ 10000 nM

I looked up `CC(C)OC1CN(C(=O)c2cnnc(N(Cc3ccc(-c4noc(C(F)(F)F)n4)s3)c3cnccn3)c2)C1` and its IC50 for Complex of human HDAC3 and human NCOR2 (Homo sapiens) was > 10000 nM

I looked up `O=C(c1ccc(N(Cc2ccc(-c3noc(C(F)(F)F)n3)s2)c2cnccn2)nn1)N1CCC1` and its IC50 for Complex of human HDAC3 and human NCOR2 (Homo sapiens) was ≤ 10000 nM

I looked up `FC(F)c1cnnc(N(Cc2ccc(-c3noc(C(F)(F)F)n3)s2)c2cnccn2)c1` and its IC50 for Complex of human HDAC3 and human NCOR2 (Homo sapiens) was > 10000 nM

Shifting focus to the compound that follows.
I looked up `FC(F)(F)c1nc(-c2ccc(CN(c3cnccn3)c3cc(CN4CCCC4)ccn3)s2)no1` and its IC50 for Complex of human HDAC3 and human NCOR2 (Homo sapiens) was > 10000 nM

FYI, the data here is from patent US20210038607A1.
